Reference for the values: patent US20230159469A1

- STUDY_TARGET: human recombinant ENPP1 (Homo sapiens, UniProt P22413)
- Sequence (P22413 whole entry): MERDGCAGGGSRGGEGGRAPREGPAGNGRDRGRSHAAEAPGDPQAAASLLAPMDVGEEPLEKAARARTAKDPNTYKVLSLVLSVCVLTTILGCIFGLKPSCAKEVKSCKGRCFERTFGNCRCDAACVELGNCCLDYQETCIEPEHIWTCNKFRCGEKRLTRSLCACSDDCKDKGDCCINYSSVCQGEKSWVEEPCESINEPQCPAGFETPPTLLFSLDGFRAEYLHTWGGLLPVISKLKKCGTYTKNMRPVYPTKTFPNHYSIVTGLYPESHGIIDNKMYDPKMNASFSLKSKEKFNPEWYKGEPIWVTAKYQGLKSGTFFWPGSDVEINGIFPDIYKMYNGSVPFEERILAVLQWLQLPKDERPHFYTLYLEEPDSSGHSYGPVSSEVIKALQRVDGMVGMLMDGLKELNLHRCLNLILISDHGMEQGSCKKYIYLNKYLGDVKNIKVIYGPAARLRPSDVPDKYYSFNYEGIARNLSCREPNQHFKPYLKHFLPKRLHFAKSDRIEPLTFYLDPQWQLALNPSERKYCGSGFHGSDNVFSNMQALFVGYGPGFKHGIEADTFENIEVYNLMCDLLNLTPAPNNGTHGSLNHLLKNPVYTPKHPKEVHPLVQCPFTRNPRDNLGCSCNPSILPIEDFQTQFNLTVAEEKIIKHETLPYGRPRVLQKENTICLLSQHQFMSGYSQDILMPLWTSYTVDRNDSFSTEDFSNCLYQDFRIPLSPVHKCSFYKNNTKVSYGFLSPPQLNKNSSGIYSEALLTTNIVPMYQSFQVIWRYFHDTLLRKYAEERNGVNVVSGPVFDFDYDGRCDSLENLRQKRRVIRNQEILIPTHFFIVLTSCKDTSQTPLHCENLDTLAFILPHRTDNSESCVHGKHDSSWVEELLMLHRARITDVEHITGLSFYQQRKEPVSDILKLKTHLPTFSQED
- MEASUREMENT_NOTES: ENPP1 enzyme assay with cGAMP substrate (AMP-Glo luminescence)
- EXPERIMENTAL_CONDITIONS: human recombinant ENPP1 3 ng/reaction, cGAMP 5 μM, 37° C. 90 minutes, read-out: Enzymatic activity (ENPP1 IC50)
Where a name gives a salt, the structure may show the parent alone.
READOUT: IC50

Please review the entries below; each comes with its answer.
COMPOUND: NS(=O)(=O)Nc1ccc(Cc2n[nH]c(=O)c3ccccc23)cc1C(F)(F)F [Example 192, hydrochloride]
IC50: < 1 µM

COMPOUND: COc1cc2c(-c3ccc(CNC(=O)OC(C)(C)C)cc3)nn(C)c(=O)c2cc1OC
IC50: > 10 µM

COMPOUND: COc1cc2c(N3CCC(CN)CC3)n[nH]c(=O)c2cc1OC [Compound No. 135, hydrochloride]
IC50: > 10 µM

Query :: Field request: IC50 | item: Cn1nc(-c2cccc(CNS(=O)(=O)NC(=O)OC(C)(C)C)c2)c2ccccc2c1=O
Result :: > 10 µM

Query :: Same question for C[C@@H](NS(N)(=O)=O)c1ccc(-c2n[nH]c(=O)c3ccccc23)cc1 [Compound No. 124, hydrochloride] please.
Result :: < 1 µM

Query :: // next record NS(=O)(=O)NCc1ccc(-c2n[nH]c(=O)c3ccccc23)cc1C(F)(F)F [Compound No. 126, hydrochloride]
Result :: < 1 µM

Query :: And for CN(C(=O)OC(C)(C)C)c1ccc(Cc2n[nH]c(=O)c3ccccc23)cc1 ?
Result :: > 10 µM

Query :: # iterate: COc1ccc2c(-c3ccc(CNS(N)(=O)=O)cc3)nn(C)c(=O)c2c1 [Compound No. 107, hydrochloride]
Result :: > 10 µM

Query :: Record: COc1cc2c(-c3ccc(CNS(=O)(=O)NC(=O)OC(C)(C)C)cc3)n[nH]c(=O)c2cc1OC
Result :: 1 to 10 µM

Query :: Check Cn1nc(-c2ccc3c(c2)CCN(S(=O)(=O)NC(=O)OC(C)(C)C)C3)c2ccccc2c1=O too.
Result :: > 10 µM

Query :: Another compound: COc1cc2c(-c3ccc4c(c3)CCN(S(=O)(=O)NC(=O)OC(C)(C)C)C4)n[nH]c(=O)c2cc1OC
Result :: > 10 µM

---

- STUDY_TARGET: human recombinant ENPP1 (Homo sapiens, UniProt P22413)
- MEASUREMENT_NOTES: ENPP1 enzyme assay with cGAMP substrate (AMP-Glo luminescence)
- EXPERIMENTAL_CONDITIONS: human recombinant ENPP1 3 ng/reaction, cGAMP 5 μM, 37° C. 90 minutes, read-out: Enzymatic activity (ENPP1 IC50)
Where a name gives a salt, the structure may show the parent alone.
READOUT: IC50

The examples below pair each entry with its known result.
MOLECULE: NCc1ccc(-c2nn(-c3ccccc3)c(=O)c3ccccc23)cc1 [Compound No. 40, hydrochloride]
IC50: 1000 to 10000 nM
--
MOLECULE: COc1cc2c(-c3ccc(CNS(N)(=O)=O)cc3)n[nH]c(=O)c2cc1OC [Compound No. 104, hydrochloride]
IC50: < 1000 nM
--
MOLECULE: CC(C)(C)OC(=O)Nc1ccc(Cc2n[nH]c(=O)c3ccccc23)cc1
IC50: > 10000 nM

Okay, now this molecule:
Query :: Please report the recorded IC50 for CC(NS(N)(=O)=O)c1ccc(-c2n[nH]c(=O)c3ccccc23)cc1 (stereo not shown) [Compound No. 123, hydrochloride] .
Result :: < 1000 nM
